These data points were gathered from the kinase profiling compilation of Christmann-Franck et al. (2016).

Exercise: state measured residual activity for each of the compounds provided.
- assayed system: JAK1 JH1 catalytic (human) (UniProt P23458)
- Sequence (P23458 whole entry, looked up): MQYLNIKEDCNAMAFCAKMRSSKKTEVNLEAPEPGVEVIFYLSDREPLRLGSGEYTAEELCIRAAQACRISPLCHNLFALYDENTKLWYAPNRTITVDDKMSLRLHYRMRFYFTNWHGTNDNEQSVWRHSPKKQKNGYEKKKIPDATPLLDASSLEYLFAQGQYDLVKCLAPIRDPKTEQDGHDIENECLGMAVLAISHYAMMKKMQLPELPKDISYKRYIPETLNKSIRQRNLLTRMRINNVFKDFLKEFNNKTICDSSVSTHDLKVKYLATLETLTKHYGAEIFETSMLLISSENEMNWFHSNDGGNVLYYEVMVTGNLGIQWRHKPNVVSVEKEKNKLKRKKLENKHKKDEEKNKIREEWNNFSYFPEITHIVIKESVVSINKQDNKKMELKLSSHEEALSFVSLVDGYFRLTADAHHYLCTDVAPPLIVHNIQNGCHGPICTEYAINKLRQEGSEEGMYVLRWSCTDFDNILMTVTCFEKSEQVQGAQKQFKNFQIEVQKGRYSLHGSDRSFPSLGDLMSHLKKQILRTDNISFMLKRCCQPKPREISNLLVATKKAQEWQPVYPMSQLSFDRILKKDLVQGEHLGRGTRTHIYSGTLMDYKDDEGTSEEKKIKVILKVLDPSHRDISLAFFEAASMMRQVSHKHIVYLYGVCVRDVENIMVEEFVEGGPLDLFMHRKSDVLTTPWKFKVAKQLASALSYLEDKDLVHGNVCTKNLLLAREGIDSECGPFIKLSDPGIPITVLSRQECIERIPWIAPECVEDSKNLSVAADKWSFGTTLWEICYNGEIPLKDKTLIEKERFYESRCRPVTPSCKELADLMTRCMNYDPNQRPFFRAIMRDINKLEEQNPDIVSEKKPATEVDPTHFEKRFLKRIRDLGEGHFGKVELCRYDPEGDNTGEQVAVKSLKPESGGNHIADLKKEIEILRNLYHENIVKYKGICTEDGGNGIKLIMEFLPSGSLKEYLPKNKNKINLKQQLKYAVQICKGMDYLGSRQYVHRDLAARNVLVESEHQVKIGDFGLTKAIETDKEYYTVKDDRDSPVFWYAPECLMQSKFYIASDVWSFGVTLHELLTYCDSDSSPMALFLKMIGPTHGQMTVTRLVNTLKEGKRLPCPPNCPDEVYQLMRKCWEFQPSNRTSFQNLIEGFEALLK
- measurement protocol: radiometric filter-binding kinase assay, Kinase HotSpot
- condition label: compound 0.5 µM; ATP 10 µM
Answers are plain numbers, in %.

Example entries begin here.
# cpd smiles, assayed system, unit spec, observed value
records = [
    ("Oc1ccc(-c2nc(-c3ccc(F)cc3)c(-c3ccncc3)[nH]2)cc1", "JAK1 JH1 catalytic (human) (UniProt P23458)", "%", 102),
    ("CC(C)n1cnc2c(Nc3cccc(Cl)c3)nc(NCCO)nc21", "JAK1 JH1 catalytic (human) (UniProt P23458)", "%", 103),
    ("Nc1n[nH]c2nnc(-c3c(-c4ccccc4)nn4ccccc34)cc12", "JAK1 JH1 catalytic (human) (UniProt P23458)", "%", 104),
    ("Nc1nc(Nc2ccc(S(N)(=O)=O)cc2)nn1C(=O)c1c(F)cccc1F", "JAK1 JH1 catalytic (human) (UniProt P23458)", "%", 5.19),
    ("COc1cc2ncnc(Nc3ccc(F)c(Cl)c3)c2cc1OCCCN1CCOCC1", "JAK1 JH1 catalytic (human) (UniProt P23458)", "%", 102),
]

List residual activity for every entry below, keeping the order given.
1. Cc1ccc(NC(=O)c2ccc(CN3CCN(C)CC3)cc2)cc1Nc1nc(-c2cccnc2)cs1
2. Nc1nc(Nc2ccc(S(N)(=O)=O)cc2)nn1C(=S)Nc1c(F)cccc1F

1: 98.8; 2: 4.86

List residual activity for every entry below, keeping the order given.
1. O=C1Nc2ccccc2/C1=C\c1c(Cl)[nH]c2ccccc12
2. NC(=O)c1ccc(N(C(N)=O)c2c(F)cccc2F)nc1-c1ccc(F)cc1F
3. COc1ccc(-c2cnc3c(-c4ccsc4)cnn3c2)cc1

96.6
98.8
87

###

Exercise: state measured residual activity for each of the molecules provided.
- assayed system: CSF1R (human)
- measurement protocol: radiometric filter-binding kinase assay, Kinase HotSpot
- condition label: compound 0.5 µM; ATP 10 µM
One number for each entry, in %.

Example entries begin here.
# molecule, assayed system, unit spec, residual activity
records = [
    ("CSc1nc(-c2ccc(F)cc2)c(-c2ccnc(NC(C)c3ccccc3)c2)[nH]1 (stereo not given)", "CSF1R (human)", "%", 104),
    ("O=C(Nc1ccc(Cl)cc1)c1ccccc1NCc1ccncc1", "CSF1R (human)", "%", 18.4),
    ("O=c1cc(-c2cccc3c2Sc2ccccc2S3)oc(N2CCOCC2)c1", "CSF1R (human)", "%", 91.9),
]

List residual activity for every entry below, keeping the order given.
1. CC(C)(C)c1nc2c3ccc(F)cc3c3c(=O)[nH]ccc3c2[nH]1
2. COc1cc2nccc(Oc3ccc(NC(=S)NC(=O)c4ccccc4C)cc3)c2cc1OC

[93, 10.5]

###

Exercise: state measured residual activity for each of the compounds provided.
- assayed system: OXSR1 (human) (UniProt O95747)
- Sequence (O95747 whole entry, looked up): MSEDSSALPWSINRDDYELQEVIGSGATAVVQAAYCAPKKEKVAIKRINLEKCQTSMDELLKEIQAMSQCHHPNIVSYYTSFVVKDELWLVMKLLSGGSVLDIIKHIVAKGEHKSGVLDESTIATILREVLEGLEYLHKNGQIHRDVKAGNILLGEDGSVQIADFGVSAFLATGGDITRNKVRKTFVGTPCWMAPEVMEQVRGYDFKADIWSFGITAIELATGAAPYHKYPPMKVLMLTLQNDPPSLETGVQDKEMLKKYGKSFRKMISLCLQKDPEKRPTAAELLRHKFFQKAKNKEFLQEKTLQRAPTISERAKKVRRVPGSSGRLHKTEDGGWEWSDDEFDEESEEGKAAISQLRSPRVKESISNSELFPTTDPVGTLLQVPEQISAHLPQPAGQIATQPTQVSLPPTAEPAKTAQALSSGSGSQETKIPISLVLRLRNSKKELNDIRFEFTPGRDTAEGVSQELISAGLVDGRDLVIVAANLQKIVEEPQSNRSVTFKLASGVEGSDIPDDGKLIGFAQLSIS
- measurement protocol: radiometric filter-binding kinase assay, Kinase HotSpot
- condition label: compound 0.5 µM; ATP 10 µM
One number for each entry, in %.

Example entries begin here.
# cpd smiles, unit spec, observed value
data = [
    ("CC(C)n1cnc2c(Nc3cccc(Cl)c3)nc(NCCO)nc21", "%", 97.7),
    ("COc1cc2nccc(Oc3ccc(NC(=S)NC(=O)c4ccccc4C)cc3)c2cc1OC", "%", 106),
    ("O=c1cc(-c2cccc3c2Sc2ccccc2S3)oc(N2CCOCC2)c1", "%", 96.1),
]

List residual activity for every entry below, keeping the order given.
1. Cc1ccc(NC(=O)c2ccc(CN3CCN(C)CC3)cc2)cc1Nc1nc(-c2cccnc2)cs1
2. Clc1ccc(Nc2nnc(Cc3ccncc3)c3ccccc23)cc1

95.6
101
